- target.or.test.system: Acetylcholinesterase (Homo sapiens) (UniProt P22303)
- Sequence (P22303 whole entry, looked up): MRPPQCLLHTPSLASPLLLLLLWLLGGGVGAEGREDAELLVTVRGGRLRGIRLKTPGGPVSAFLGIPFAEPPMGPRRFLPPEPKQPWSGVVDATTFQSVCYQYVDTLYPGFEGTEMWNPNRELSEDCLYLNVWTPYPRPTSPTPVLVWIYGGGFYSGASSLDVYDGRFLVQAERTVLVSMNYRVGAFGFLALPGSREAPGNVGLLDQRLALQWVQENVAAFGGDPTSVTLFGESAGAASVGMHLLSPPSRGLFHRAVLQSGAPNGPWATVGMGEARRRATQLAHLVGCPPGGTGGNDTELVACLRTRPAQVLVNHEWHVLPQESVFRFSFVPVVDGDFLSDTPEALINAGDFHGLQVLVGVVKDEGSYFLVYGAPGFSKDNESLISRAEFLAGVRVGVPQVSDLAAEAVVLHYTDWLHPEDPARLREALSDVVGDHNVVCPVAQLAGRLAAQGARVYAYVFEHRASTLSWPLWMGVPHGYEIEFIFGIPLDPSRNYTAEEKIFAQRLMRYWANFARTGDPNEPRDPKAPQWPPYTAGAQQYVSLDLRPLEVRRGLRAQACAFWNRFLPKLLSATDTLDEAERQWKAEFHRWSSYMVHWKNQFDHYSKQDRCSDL
- procedure.details: Acetylcholinesterase (AChE) small molecule antagonists: enzyme-based qHTS assay (AID 1347397); further: nearly all actives have a fitted effect of over 55% in size
- conditions: AChE enzyme activity inhibition; series mostly up to 115 µM
Active and inactive are the calls of the source. The call rests on the fitted dose curve.
Classes used: 1 = active, 0 = inactive

* O=C(O)c1cc(I)cc(I)c1I | 0
* CC(C)(c1ccccc1)c1cc(-n2nc3ccccc3n2)c(O)c(C(C)(C)c2ccccc2)c1 | 0
* CCCCCCCCCCCCN(C)C | 0
* O=P(OCC(Br)CBr)(OCC(Br)CBr)OCC(Br)CBr (centres undefined) | 0
* CCCC[N+]1(C)[C@@H]2CC(OC(=O)[C@H](CO)c3ccccc3)C[C@H]1[C@@H]1O[C@@H]12 (some centres undefined) | 0
* COC(=O)Cc1ccccc1 | 0
* CCCC(C)(COC(N)=O)COC(=O)NC(C)C (centres undefined) | 0
* C=C(Cl)Cl | 0
* COc1ccc2c(c1OC)C(=O)O[C@H]2[C@@H]1c2cc3c(cc2CCN1C)OCO3 | 0
* CC(C)(C)NCC(O)c1ccccc1Cl (centres undefined) | 0
* OCCCl | 0
* CCCSP(=S)(OCC)Oc1ccc(SC)cc1 (centres undefined) | 0
* CCOC(=O)C1OC1(C)c1ccccc1 (centres undefined) | 0
* FC(F)OC(F)(F)C(F)Cl (centres undefined) | 0
* O=C(CCl)CCl | 0
* O=C(O)c1ccc(=O)[nH]c1 | 0
* Nc1cc(Cl)cc(C(=O)O)c1Cl | 0
* NNCCO | 0
* ClCc1ccccc1Cl | 0
* COc1cc(CC(C)N)c(OC)cc1Br (centres undefined) | 0
* CN(C)N | 0
* C[N+]1(CCC(C(N)=O)(c2ccccc2)c2ccccc2)CCCCC1 | 0
* Cc1cnc(C2=NC(C)(C(C)C)C(=O)N2)c(C(=O)O)c1 (centres undefined) | 0
* CC(C)(C)OOC(C)(C)CCC(C)(C)OOC(C)(C)C | 0
* O=C(O)COc1cc(Cl)c(Cl)cc1Cl | 0
* CCCCOC(=O)CCC(=O)OCCCC | 0
* O=C(Cc1ccccc1)OCCc1ccccc1 | 0
* O=C(N[C@H]1CN2CCC1CC2)c1ccc2c(c1)OCCO2 | 0
* Cc1nc(N(C)C)nc(OC(=O)N(C)C)c1C | 1

----------
- procedure.details: qHTS assay to identify small molecule antagonists of the estrogen related receptor (ERR) signaling pathway from Tox21 library (AID 1224848); further: nearly all actives have a fitted effect of over 50% in size
- conditions: ERR reporter cell line, luciferase antagonist mode, 18 h; series mostly up to 92.4 µM
Records with an inconclusive call do not appear. The source made the active and inactive calls. Calls come from the whole dose curve; as a rule, active = well fitted inhibition curve with a large enough effect in the repeat runs; inconclusive = weak or mixed curves; inactive = no such curve, though single readings can be large or run the other way.
recorded.endpoint: outcome

• CCCC[N+](CCCC)(CCCC)CCCC = inactive
• CCC1(C2=NCCN2)Cc2ccccc2O1 (stereo not drawn) = inactive
• CC(C)(C#N)C(C)(C)C#N = inactive

----------
- procedure.details: qHTS assay to identify small molecule antagonists of the estrogen related receptor (ERR) signaling pathway from Tox21 library (AID 1224848); further: nearly all actives have a fitted effect of over 50% in size
- conditions: ERR reporter cell line, luciferase antagonist mode, 18 h; series mostly up to 92.4 µM
Results filed as inconclusive are left out. Activity calls are given as the source filed them. Calls come from the whole dose curve; as a rule, active = well fitted inhibition curve with a large enough effect in the repeat runs; inconclusive = weak or mixed curves; inactive = no such curve, though single readings can be large or run the other way.
Classes used: active, inactive

- O=[N+]([O-])O[C@H]1CO[C@H]2[C@@H]1OC[C@H]2O[N+](=O)[O-]: inactive
- O=[N+]([O-])c1cc(Cl)c(Cl)cc1Cl: inactive
- COC1=CC(=O)O[C@@H](/C=C/c2ccc3c(c2)OCO3)C1: active
- NNCCO: inactive
- N#CC1(N=NC2(C#N)CCCCC2)CCCCC1: inactive
- CC(=O)NNc1ccccc1: active
- C=CCOC(=O)C(C)(C)OC(=O)c1cc(-n2c(=O)cc(C(F)(F)F)n(C)c2=O)ccc1Cl: active

----------
- procedure.details: qHTS assay for small molecule agonists of the antioxidant response element (ARE) signaling pathway (AID 743202); on activation: on the % scale 0 is the no-effect control and ±100 the full control effect
- conditions: HepG2 ARE-bla reporter, beta-lactamase FRET, 16 h; series mostly up to 73.3 µM
Results filed as inconclusive are left out. Activity calls are given as the source filed them. The call rests on the fitted dose curve; in most records, active means well fitted activation curve with a large enough effect in the signal ratio in the repeat runs (not every such curve was filed as active); inconclusive means weak or mixed curves, or effect the other way; inactive means no such curve, though single readings can be large or run the other way; the % refers to the signal ratio.
Classes used: active, inactive

• CCCC1CCCCN1 (centres undefined) = inactive
• O=C(N[C@H]1CN2CCC1CC2)c1ccc2c(c1)OCCO2 = inactive
• O=C(O)C(F)(F)C(F)(F)C(F)(F)C(F)(F)C(F)(F)C(F)(F)C(F)(F)C(F)(F)F = active
• CN(C1CCCCC1)C1CCCCC1 = inactive
• O=CC=O = inactive
• FC(Cl)(Cl)C(F)(Cl)Cl = inactive
• Clc1ccccc1 = inactive
• CCCCC(CC)COC(=O)c1c(Br)c(Br)c(Br)c(Br)c1C(=O)OCC(CC)CCCC (centres undefined) = inactive
• C[N+]1(CCC(C(N)=O)(c2ccccc2)c2ccccc2)CCCCC1 = inactive
• CCCC[P+](CC)(CCCC)CCCC (tested in a mixture with another compound) = inactive
• O=C(NC(=O)c1cc(F)c(F)cc1Cl)Nc1cc(F)ccc1N1CCC(C(=O)O)CC1 = inactive
• C1CS1 = inactive
• C=CCSSCC=C = inactive
• CN(C)N = inactive

----------
- procedure.details: qHTS assay for small molecule agonists of the p53 signaling pathway (AID 651631); further: nearly all actives have a fitted effect of over 15% in size
- conditions: HCT-116 p53RE-bla reporter, beta-lactamase FRET ratio, 16 h; series mostly up to 73.3 µM
- Excerpt: U.S. Tox21 Program National Center for Advancing Translational Sciences [NCATS] NIH Chemical Genomics Center [NCGC] U.S. Environmental Protection Agency [EPA] National Institutes of Environmental Health Sciences [NIEHS] National Toxicology Program [NTP] U.S. Food and Drug Administration [FDA] […] The activation of the reporter gene under culture conditions can be detected by fluorescence intensity. […]
Results filed as inconclusive are left out. Calls of active or inactive are those of the source. Calls come from the whole dose curve.
Classes used: active, inactive

* CCOP(=S)(S)OCC | inactive
* C1CCNCC1 | inactive
* Cc1cnc(C2=NC(C)(C(C)C)C(=O)N2)c(C(=O)O)c1 (centres undefined) | inactive
* CNC(=O)Oc1cccc(N=CN(C)C)c1 | inactive
* O=C(CCl)CCl | active
* CC(Cl)C(=O)O (centres undefined) | inactive
* O=S(=O)(Cl)Cl | inactive
* CC(C)(c1ccccc1)c1cc(-n2nc3ccccc3n2)c(O)c(C(C)(C)c2ccccc2)c1 | inactive
* COC(=O)Cc1ccccc1 | inactive

----------
- procedure.details: qHTS RealTime-Glo MT Cell Viability Assay in HEK293 cells - 8 hour (AID 1224887); further: nearly all actives have a fitted effect of over 50% in size
- conditions: RealTime-Glo luminescence; series mostly up to 76.8 µM
Results filed as inconclusive are left out. Calls of active or inactive are those of the source. Calls come from the whole dose curve; as a rule, active = well fitted cell-killing curve with a large enough effect in the repeat runs; inconclusive = weak or mixed curves, or effect the other way; inactive = flat fitted curve, though single readings scatter.
Classes used: TRUE for active, FALSE for inactive

- Oc1cccc(Cl)c1: FALSE
- CC(=O)OC(c1ccccc1)C(Cl)(Cl)Cl (centres undefined): FALSE
- O=C(O)CCCOc1ccc(Cl)cc1Cl: FALSE
- NC(=S)c1c(Cl)cccc1Cl: FALSE
- CC(C)(C)CC(C)(C)c1ccc(O)cc1: TRUE
- CCCCC1C(=O)NC(=O)N(C2CCCCC2)C1=O (centres undefined): FALSE
- SCc1ccccc1: FALSE
- O=C1CC[C@@]2(O)[C@H]3Cc4ccc(O)c5c4[C@@]2(CCN3CC2CC2)[C@H]1O5: FALSE
- O=C(O)c1cc(I)cc(I)c1I: FALSE
- CC[N+]1(C)CCCC(OC(=O)C(O)(c2ccccc2)c2ccccc2)C1 (centres undefined): FALSE
- CCCC1CCCCN1 (centres undefined): FALSE
- Nc1cc(Cl)cc(C(=O)O)c1Cl: FALSE
- COc1cc(CC(C)N)c(OC)cc1Br (centres undefined): FALSE
- C=CC(=O)NC(C)(C)CC(C)=O: FALSE

----------
- procedure.details: A CellTox Green Cytotoxicity Assay to monitor cytotoxicity in HEK293 cells - 32 hour (AID 1224881); further: nearly all actives have a fitted effect of over 40% in size
- conditions: CellTox Green fluorescence; series mostly up to 76.8 µM
Inconclusive results are not listed. Activity calls are given as the source filed them. Calls follow the shape of the dose curve; as a rule, active = well fitted activation curve with a large enough effect in the repeat runs; inconclusive = weak or mixed curves; inactive = flat fitted curve, though single readings scatter.
Classes used: TRUE (active), FALSE (inactive)

• CN(C)C(=O)Nc1cccc(OC(=O)NC(C)(C)C)c1 = FALSE
• CCSCc1ccccc1OC(=O)NC = FALSE
• NP(N)(=O)NC(=O)c1ccc(F)cc1 = FALSE
• C[C@H]1[C@@H]2Cc3ccc(O)cc3[C@@]1(C)CCN2C = FALSE
• CCNC(=O)NC(=O)/C(C#N)=N/OC = FALSE
• CCN(C(C)=O)c1cccc(-c2ccnc3c(C#N)cnn23)c1 = FALSE
• C[C@H](N)[C@H](O)c1ccc(O)c(O)c1 = TRUE
• CCC1(CC)C(=O)NC(=O)NC1=O = FALSE
• C[N+]1(CCF)[C@@H]2CC[C@H]1CC(OC(=O)C(O)(c1ccccc1)c1ccccc1)C2 (some centres undefined) = FALSE
• CCCC1CCCCN1 (centres undefined) = FALSE
• CC(C)OC(=O)Cc1ccccc1 = FALSE
• c1ccc2sc(SNC3CCCCC3)nc2c1 = FALSE
• SCc1ccccc1 = FALSE
• C1CCNCC1 = FALSE

These data points were gathered from PubChem BioAssay (Tox21).
